variants and their reported protein stability index
B1: ZBTB22 (parent)
chain: HTGLKPYECGVCAKKFMWRDSFMR

Variants of: B1
Assay: protein stability index of a GFP-peptide fusion (GPS, HEK-293T) (PSI 1-6); higher = more stable;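 further: lentivirally expressed fusions sorted by FACS into six bins by GFP to DsRed ratio, PSI derived from sequencing read proportions per bin multiplied by bin number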
Conditions: c terminus: a fixed tail appended

[
  {
    "Mutation list": "C9V",
    "protein stability index": 2.02
  },
  {
    "Mutation list": "K15F",
    "protein stability index": 2
  },
  {
    "Mutation list": "W18R",
    "protein stability index": 2.05
  },
  {
    "Mutation list": "D20Y",
    "protein stability index": 2.74
  },
  {
    "Mutation list": "F22Y",
    "protein stability index": 1.89
  },
  {
    "Mutation list": "A13K",
    "protein stability index": 1.22
  },
  {
    "Mutation list": "M23H",
    "protein stability index": 2.79
  },
  {
    "Mutation list": "W18P",
    "protein stability index": 2.88
  },
  {
    "Mutation list": "R19D",
    "protein stability index": 1.88
  },
  {
    "Mutation list": "C9D",
    "protein stability index": 1.85
  },
  {
    "Mutation list": "C9G",
    "protein stability index": 2.23
  },
  {
    "Mutation list": "W18K",
    "protein stability index": 1.75
  },
  {
    "Mutation list": "G3T",
    "protein stability index": 2.23
  },
  {
    "Mutation list": "M17Y",
    "protein stability index": 1.53
  },
  {
    "Mutation list": "V11R",
    "protein stability index": 1.75
  },
  {
    "Mutation list": "K15Q",
    "protein stability index": 2.05
  },
  {
    "Mutation list": "R24T",
    "protein stability index": 3.9
  },
  {
    "Mutation list": "C12P",
    "protein stability index": 1.73
  },
  {
    "Mutation list": "L4A",
    "protein stability index": 1.62
  },
  {
    "Mutation list": "C9P",
    "protein stability index": 2.65
  },
  {
    "Mutation list": "G10H",
    "protein stability index": 1.96
  },
  {
    "Mutation list": "P6M",
    "protein stability index": 2.6
  },
  {
    "Mutation list": "K5I",
    "protein stability index": 2.05
  },
  {
    "Mutation list": "K14P",
    "protein stability index": 1.21
  },
  {
    "Mutation list": "C12W",
    "protein stability index": 3.06
  },
  {
    "Mutation list": "G10R",
    "protein stability index": 2.01
  },
  {
    "Mutation list": "T2D",
    "protein stability index": 3.09
  },
  {
    "Mutation list": "K5C",
    "protein stability index": 2.43
  },
  {
    "Mutation list": "W18S",
    "protein stability index": 1.52
  },
  {
    "Mutation list": "F22W",
    "protein stability index": 1.53
  },
  {
    "Mutation list": "T2Y",
    "protein stability index": 2.79
  },
  {
    "Mutation list": "S21P",
    "protein stability index": 3.07
  },
  {
    "Mutation list": "R19M",
    "protein stability index": 2.01
  },
  {
    "Mutation list": "W18C",
    "protein stability index": 1.85
  },
  {
    "Mutation list": "K14Q",
    "protein stability index": 2.53
  },
  {
    "Mutation list": "M23F",
    "protein stability index": 2.41
  },
  {
    "Mutation list": "K15M",
    "protein stability index": 2.88
  },
  {
    "Mutation list": "A13I",
    "protein stability index": 2.5
  },
  {
    "Mutation list": "G10N",
    "protein stability index": 2.62
  },
  {
    "Mutation list": "L4S",
    "protein stability index": 4.46
  },
  {
    "Mutation list": "G3P",
    "protein stability index": 4.19
  },
  {
    "Mutation list": "M17S",
    "protein stability index": 1.9
  },
  {
    "Mutation list": "F22E",
    "protein stability index": 3.96
  },
  {
    "Mutation list": "R24K",
    "protein stability index": 1.71
  },
  {
    "Mutation list": "R19N",
    "protein stability index": 2.29
  },
  {
    "Mutation list": "G3V",
    "protein stability index": 3.07
  },
  {
    "Mutation list": "F16V",
    "protein stability index": 1.95
  },
  {
    "Mutation list": "S21L",
    "protein stability index": 3.24
  },
  {
    "Mutation list": "R24H",
    "protein stability index": 3.35
  },
  {
    "Mutation list": "M23A",
    "protein stability index": 3.12
  },
  {
    "Mutation list": "K15T",
    "protein stability index": 1.61
  },
  {
    "Mutation list": "K5M",
    "protein stability index": 2.73
  },
  {
    "Mutation list": "K15H",
    "protein stability index": 3.5
  }
]
